Molecular target: OX1 (Homo sapiens)
Construct: expressed in transfected cells; host or cells: CHO (CHO-OX1, kept under selection antibiotic)
Sequence (O43613 whole entry): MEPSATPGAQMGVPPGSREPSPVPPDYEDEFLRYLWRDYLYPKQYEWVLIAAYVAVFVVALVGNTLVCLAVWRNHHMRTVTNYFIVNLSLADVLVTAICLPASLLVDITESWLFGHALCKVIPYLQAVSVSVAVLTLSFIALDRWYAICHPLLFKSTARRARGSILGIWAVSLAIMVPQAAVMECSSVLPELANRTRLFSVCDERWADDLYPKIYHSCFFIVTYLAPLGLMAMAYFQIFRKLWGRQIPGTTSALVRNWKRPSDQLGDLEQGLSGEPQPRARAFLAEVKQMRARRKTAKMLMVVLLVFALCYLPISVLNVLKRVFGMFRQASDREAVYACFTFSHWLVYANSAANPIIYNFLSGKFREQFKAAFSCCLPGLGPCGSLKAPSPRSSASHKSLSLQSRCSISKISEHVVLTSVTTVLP
Assay: Orexin receptor cell-based functional assay, [Ca2+]i by FLIPR, CHO-OX1 cells
Settings: CHO-OX1 cells, [Ca2+]i by FLIPR, antagonist dose-range 0.1 nM-10 μM, EC90 of OXA; read-out: OX1
Criterion: IC50 strictly less than 20 nM. Met: yes. Not met: no.

Examples from the recorded data:
Request: Just wondering, is IC50 of "Cc1ccc(-n2nccn2)c(C(=O)N2CCC[C@@H](C)[C@H]2CNc2nc3ccccc3o2)c1" below 20 nM?
Response: yes

Request: IC50 under 20 nM? Item: "Cc1c(F)ccc(C(=O)N2CCC[C@@H](C)[C@H]2CNc2ncc(C(F)(F)F)cn2)c1-c1ncccn1"
Response: yes

Request: Criterion: IC50 strictly below 20 nM. Is it met by "CCn1cc(-c2ccc(C)cc2C(=O)N2CCC[C@@H](C)[C@H]2CNc2ccc(C(F)(F)F)cn2)cn1" ?
Response: yes

Request: Does this compound meet the criterion IC50 < 20 nM? "Cc1ccc(-n2ccc(C)n2)c(C(=O)N2CCC[C@@H](C)[C@H]2CNc2nnc(C(F)(F)F)s2)c1"
Response: no

Request: For "Cc1ccc(-n2nccn2)c(C(=O)N2CCC[C@@H](C)[C@H]2CNc2ncc(C(F)(F)F)cc2F)n1" , is the recorded IC50 below the cut-off of 20 nM?
Response: yes

Others:
Request: Hello, is IC50 of the following compound strictly smaller than 20 nM? "Cc1ccc(C(=O)N2CCC[C@@H](C)[C@H]2CNc2ncc(C(F)(F)F)cn2)c(-n2nccn2)c1F"
Response: yes
